measurement-description: Cmax in Sprague-Dawley rat at 10 mg/kg, po measured after 24 to 48 hrs by LC-MS/MS analysis
Type: ADME, organism-based
particulars: in vivo, time 24-48 hrs
value-kind: Cmax (ng/mL)

compound="COc1cc(NC(C(=O)c2c[nH]c3cc(F)ccc23)c2ccc(F)cc2OCCO)cc(S(C)(=O)=O)c1 (single isomer, unassigned; (+))" value_kind=Cmax observed_measurement=104
compound="COc1cc(NC(C(=O)c2c[nH]c3cc(OC)c(C)cc23)c2ccc(F)cc2OC)cc(S(C)(=O)=O)c1 (single isomer, unassigned; (+))" value_kind=Cmax observed_measurement=263
compound="COc1cc(NC(C(=O)c2c[nH]c3cc(F)ccc23)c2ccc(F)cc2OC)cc(S(C)(=O)=O)c1 (centres undefined)" value_kind=Cmax observed_measurement=418
compound="COc1cc(N[C@H](C(=O)c2c[nH]c3ccc(OC(F)(F)F)cc23)c2ccc(Cl)cc2OC)cc(S(C)(=O)=O)c1 [MOSNODENVIR]" value_kind=Cmax observed_measurement=629
